All values here come from PubChem BioAssay (NCI).

# Test system: M14 melanoma
# assay.info: NCI-60 one-dose screen, 48 h (100 = growth as untreated, 0 = no growth, -100 = all killed)
# assay.setup: 10 µM unless noted
The panel holds about 83,000 compounds, 20% with a hit somewhere; the sample as a whole holds those more often.
measured.quantity: growth (%)
Field: numeric (%). Do not append units.

Q. If you can, please state the reported growth value of `Cc1ccc(/C=C/c2c(C(=O)/C=C/c3ccc(C(F)(F)F)cc3)c(C)nc3ccccc23)cc1` .
A. -35.8

Q. Same lookup for `CCN(CC)c1nc(SCC(=O)Nc2nc3ccc(C)cc3s2)nc(-c2ccccc2)c1C#N` , please.
A. 101

Q. Same lookup for COCCc1ccc(OCC(O)CNC(C)C)cc1 (stereo not given) , please.
A. 92.4

Q. Same lookup for `N#Cc1c(N)nn(C(=O)c2ccc(NC(=O)c3ccccn3)cc2)c1-c1ccc(Cl)cc1` , please.
A. 17.1

Q. Same lookup for `c1ccc(-c2nc([P+](c3ccccc3)(c3ccccc3)c3ccccc3)c(N3CCOCC3)o2)cc1` , please.
A. 4.76

Q. Same lookup for `CC(=O)c1nc(Nc2ccc(C)cc2)sc1C` , please.
A. 97.1

Q. Same lookup for `N/C(=N\c1nc2ccccc2s1)NC(=O)Nc1cccc(Cl)c1` , please.
A. 10.3

Q. Same lookup for `O=C(CSc1nnc(-c2ccc(NC(=O)c3cccnc3)cc2)o1)Nc1cccc(Br)c1` , please.
A. 101

Q. Same lookup for `COc1cc(-c2nc(N3CCN(C)CC3)c3ccccc3n2)cc(OC)c1OC` , please.
A. 42

Q. Same lookup for `Cc1ccc(C(=O)CSc2nc(-c3ccc(Br)cc3)c(C#N)c(=O)[nH]2)cc1` , please.
A. 92.7

###

# System: SW-620 colon
# assay.info: NCI-60 one-dose screen, 48 h (100 = growth as untreated, 0 = no growth, -100 = all killed)
# assay.setup: 10 µM unless noted
Compounds without any hit were thinned out: in the full panel of roughly 83,000, 20% have a hit.
Assign met whenever growth does not fall below 90%; assign not met whenever it does.

Q. Threshold query (growth >= 90%) on `CCN(CC)CCn1nc2c3c(cccc3c1=O)-c1ccccc1-2`
A. not met

Q. Same lookup for `NC(=S)Nc1cccc(O)c1` , please.
A. met

Q. Same lookup for `COc1ccc(-c2c(N)n[nH]c2-c2ccc(Cl)cc2O)cc1OC` , please.
A. met

Q. Same lookup for `Cc1ccc(S(=O)(=O)n2cc(CNc3ccc(N4CCOCC4=O)cc3)c3ccccc32)cc1` , please.
A. not met

Q. Same lookup for `O=C(Nc1ccc(Cl)cc1)Nc1ccc(Cl)c(C(F)(F)F)c1` , please.
A. not met

Q. Same lookup for `CCN(CC)CCCNc1ccc(Nc2ccc(OC)cc2)cc1` , please.
A. not met

Q. Same lookup for `CCOC(=O)/C=C/c1cc2cc(-c3csc4ccccc34)ccc2[nH]1` , please.
A. not met

Q. Same lookup for `COc1cc(-c2nc(N3CCN(C)CC3)c3ccccc3n2)cc(OC)c1OC` , please.
A. not met

Q. Same lookup for `CC1(C)CC[C@]2(C(=O)N3CCOCC3)CC[C@]3(C)C(=CC[C@@H]4[C@@]5(C)CC[C@H](OC(=O)c6cccnc6)C(C)(C)[C@@H]5CC[C@]43C)[C@@H]2C1` , please.
A. not met

Q. Same lookup for N#CCN1C(=O)C2C3=C(CCCC3)SC2N=C1CN1CCCC1 (stereo not given) , please.
A. met

Q. Same lookup for O=C(c1ccccc1)N1N=C(c2ccccc2)CC1c1nnc2n(Cc3ccccc3)c(=O)c3c4c(sc3n12)CCCC4 (stereo not given) , please.
A. met

Q. Same lookup for `COc1ccc(-c2nc3c(N)c(CO)c(C)nc3o2)cc1` , please.
A. met

Q. Same lookup for `Cc1ccc(/C=C/c2c(C(=O)/C=C/c3ccc(Cl)cc3)c(C)nc3ccccc23)cc1` , please.
A. not met

Q. Same lookup for O=C1Nc2ccc(F)cc2C12Nc1cc(Cl)ccc1S2 (stereo not given) , please.
A. met

Q. Same lookup for `COc1ccc(C(=NN=C(N)N)c2ccc(OC)cc2)cc1` , please.
A. not met

Q. Same lookup for `Cc1cc(NCc2cc(Nc3ccnc4cc(Cl)ccc34)ccc2F)nc(N2CCOCC2)n1` , please.
A. not met

Q. Same lookup for N#CC1=C(c2ccc(Br)cc2)NC(SCC(=O)c2ccc(Br)cc2)NC1=O (stereo not given) , please.
A. met

Q. Same lookup for `Cc1cc(NCc2cc(Nc3ccnc4cc(Cl)ccc34)ccc2F)nc(N2CCCC2)n1` , please.
A. not met

###

# System: NCI-H226 lung
# assay.info: NCI-60 one-dose screen, 48 h
# assay.setup: 10 µM unless noted
About 83,000 compounds went through this panel and 20% of them were active in at least one assay; those are over-represented in the sample as a whole. Activity calls are given as the source filed them. How the source made its calls: active means growth percent below 10; inactive means the rest.
Hi there, use one of these labels in your reply, thanks! active, inactive

Q. Which outcome was entered for the molecule `CC(C)(C)CC(C)(C)Nc1c(-c2ccncc2)nc2cnccn12` in this test?
A. inactive

Q. Same lookup for CS(=O)c1cccc(-c2ccc3nc(N)n(-c4ccc(C(F)(F)F)cc4)c(=O)c3c2)c1 (centres undefined) , please.
A. inactive

Q. Same lookup for `CN(C)c1ccc(-c2cc(-c3ccc(Nc4nc(Nc5ccc(Cl)cc5)nc(Nc5ccc(Cl)cc5)n4)cc3)no2)cc1` , please.
A. inactive

Q. Same lookup for `c1c[nH]c(CNC2CCCCC2)c1` , please.
A. inactive

Q. Same lookup for `C[C@@]1(CCC#N)[C@H]2CC[C@@H]3[C@H]4[C@H](C(=O)/C=C/c5cccnc5)CC[C@]4(C#N)CC[C@@]3(C)[C@]2(C)CC[C@H]1C(=O)/C=C/c1cccnc1` , please.
A. inactive

Q. Same lookup for `COc1ccc2[nH]c(O)c(/C=c3/cc4c(c(-c5cc(OC)c(OC)c(OC)c5)n3)=Nc3ccccc3-4)c2c1` , please.
A. inactive

Q. Same lookup for `CN(C)c1ccc(/C=C/C(=O)c2cccc(Nc3nc(Nc4ccccc4)nc(Nc4ccccc4)n3)c2)cc1` , please.
A. inactive

Q. Same lookup for `N/C(=N/N=C/c1ccccc1)N/N=C\c1ccccc1` , please.
A. inactive

Q. Same lookup for `Cn1cc(-c2csc(-c3ccccc3)n2)c2cccnc21` , please.
A. active

Q. Same lookup for `COc1cc(N2C(=O)c3nccnc3C2=O)cc(OC)c1OC` , please.
A. inactive

Q. Same lookup for O=C(NC(Cc1nnc2n(Cc3ccccc3)c(=O)c3c4c(sc3n12)CCCC4)c1ccc(Cl)cc1)c1ccccc1 (centres undefined) , please.
A. inactive

Q. Same lookup for `COc1nc2c(c(=O)n1C)CN(c1ccccc1)C(=O)CN2C` , please.
A. inactive

Q. Same lookup for `O=C1C=C[C@]2(C[C@@H](c3cccc(C(F)(F)F)c3)O[C@@H](c3cccc(C(F)(F)F)c3)O2)O1` , please.
A. active

Q. Same lookup for `C[n+]1cc2cc(C(N)=O)[nH]c3c(=N)c(Cl)c(N)c1c23` , please.
A. inactive

Q. Same lookup for CCOP(=O)(OCC)C1CP(=O)(c2ccccc2)CC(C)=C1Cl (centres undefined) , please.
A. inactive

Q. Same lookup for `CN(C)CCNc1nc2ccccc2c2c1c1c(n2Cc2ccccc2)-c2ccccc2C1=O` , please.
A. active

Q. Same lookup for CC1(c2ccccc2)NC(=O)N(NC(=O)CSc2nc(-c3cccs3)nc3ccccc23)C1=O (centres undefined) , please.
A. inactive

Q. Same lookup for CCCCCCCOc1c(OC)cc(C2CC(=O)Nc3c2c(C)nn3-c2nc3ccccc3[nH]2)cc1OC (centres undefined) , please.
A. active

Q. Same lookup for CC(=O)n1c(-c2ccc(Cl)cc2)nc2c(c1=O)C(c1ccc(Cl)cc1)c1sc3c(Cl)cccc3c1O2 (centres undefined) , please.
A. active

Q. Same lookup for `O=C(CSc1nnc(-c2ccc(NC(=O)c3cccnc3)cc2)o1)Nc1cccc(Br)c1` , please.
A. inactive

Q. Same lookup for COc1ccc(-c2nc3c(c(=O)n2C(C)=O)C(c2ccc(Cl)cc2)c2sc4c(Cl)cccc4c2O3)cc1 (centres undefined) , please.
A. inactive

Q. Same lookup for `N#Cc1c(N)nc(NCCO)nc1-c1ccc(F)cc1` , please.
A. inactive

Q. Same lookup for `Cc1cc(C)c2c(-c3nnc(N)s3)cc(=O)oc2c1` , please.
A. inactive

Q. Same lookup for `Cc1ccc2nc(C)c(-c3nnc(SCc4ccc(C#N)cc4)o3)n2c1` , please.
A. inactive

Q. Same lookup for `Cc1cccc(Cc2cnc(NC(=O)c3ccc4nnsc4c3)s2)c1` , please.
A. inactive

Q. Same lookup for `Cc1cc(NCc2cc(Nc3ccnc4cc(Cl)ccc34)ccc2F)nc(N2CCSCC2)n1` , please.
A. inactive

Q. Same lookup for `COc1cccc(C(=O)NCCNc2cc(-c3cn(-c4ccccc4)nc3-c3cccc(OC)c3)ccn2)c1` , please.
A. inactive

Q. Same lookup for Cc1nc2ccccc2n1CC1NC(=O)NC1=O (centres undefined) , please.
A. inactive

Q. Same lookup for `Cc1c(C)c2c(c(C)c1OCC(=O)O)CC[C@@](C)(CCC[C@@H](C)CCC[C@@H](C)CCCC(C)C)O2` , please.
A. active

Q. Same lookup for `Cc1ccccc1NC(=O)N/C(N)=N/c1nc(C)c(C)s1` , please.
A. inactive

Q. Same lookup for `Cc1ccc(-c2cc(-c3cccnc3)[nH]c(=O)c2C#N)cc1` , please.
A. inactive

Q. Same lookup for `Cc1c(C(=O)N[C@@H](Cc2ccccc2)C(=O)C(=O)NCCc2ccccc2)[nH]c2ccccc2c1=O` , please.
A. inactive

Q. Same lookup for `Cc1ccc(/C=C2\C(=O)N(C)c3ccc(S(=O)(=O)Nc4ccc(C(C)(C)C)cc4)cc32)s1` , please.
A. inactive

Q. Same lookup for `CCCCCCCCCCN(CCCCCCCCCC)CC(=O)c1ccc2cc(Br)c3ccccc3c2c1` , please.
A. inactive

Q. Same lookup for `CCOc1c(C#N)nnc2c(C#N)c(NC(=O)c3ccccc3)nn12` , please.
A. inactive

Q. Same lookup for `Cc1ccc(Cc2cnc(NC(=O)c3ccc4noc(-c5ccccc5)c4c3)s2)cc1` , please.
A. inactive

Q. Same lookup for `O=C(NCCNc1cc(-c2cn(-c3ccccc3)nc2-c2cccc(O)c2)ccn1)Nc1ccccc1` , please.
A. inactive

Q. Same lookup for `COc1ccc(S(=O)(=O)NCCNc2nccc(-c3c(-c4cccc(F)c4)nc4sccn34)n2)cc1` , please.
A. inactive

Q. Same lookup for `c1csc(-c2c3ccc(=[N+]4CCCCC4)cc-3oc3cc(N4CCCCC4)ccc23)c1` , please.
A. active
